Values from the supplement of paper PMC10627819

Consider the following compounds and their measured MIC readings.
tested on: S. aureus DSM 20231

>  <cpdSmiles>
Oc1cc(Cl)ccc1Oc1ccc(Cl)cc1Cl

>  <measurementUnit>
µg/mL

>  <qualifierSign>
=

>  <MIC>
0.08

$$$$
>  <cpdSmiles>
C[n+]1ccc(-c2cc[n+](C)cc2)cc1

>  <measurementUnit>
µg/mL

>  <qualifierSign>
=

>  <MIC>
50

$$$$
>  <cpdSmiles>
Cc1cc(NS(=O)(=O)c2ccc(N)cc2)no1

>  <measurementUnit>
µg/mL

>  <qualifierSign>
>

>  <MIC>
16

$$$$
>  <cpdSmiles>
CC[C@H]1OC(=O)[C@H](C)C(=O)[C@H](C)[C@@H](O[C@@H]2O[C@H](C)C[C@H](N(C)C)[C@H]2O)[C@](C)(OC)C[C@@H](C)C(=O)[C@H](C)[C@H]2N(CCCCn3cnc(-c4cccnc4)c3)C(=O)O[C@]12C

>  <measurementUnit>
µg/mL

>  <qualifierSign>
=

>  <MIC>
0.15

$$$$
>  <cpdSmiles>
Cc1onc(-c2ccccc2)c1C(=O)N[C@@H]1C(=O)N2[C@@H]1SC(C)(C)[C@@H]2C(=O)O

>  <measurementUnit>
µg/mL

>  <qualifierSign>
=

>  <MIC>
0.069

$$$$

###

tested on: S. aureus Newman; test: Bliss interaction score (quartile over a dose matrix) (fitness difference); higher = more antagonism (negative = synergy)
param class (str): category from Bliss interaction score; see ranges bottom end: < 0.03; midrange: ≥ 0.03 and < 0.07; top end: ≥ 0.07

>  <compound>
CC1=C(C(=O)O)N2C(=O)[C@@H](NC(=O)[C@H](N)c3ccccc3)[C@H]2SC1 [Cephalexin] + CN(N=O)C(=O)N[C@@H](C=O)[C@@H](O)[C@H](O)[C@H](O)CO [Streptozotocin]

>  <qualitativeLabel>
midrange

$$$$
>  <compound>
Cn1c2cccc(=O)c-2nc2ccccc21 [Pyocyanin] + CN(C)c1cc(NC(=O)CNC(C)(C)C)c(O)c2c1C[C@H]1C[C@H]3[C@H](N(C)C)C(O)=C(C(N)=O)C(=O)[C@@]3(O)C(O)=C1C2=O [Tigecycline]

>  <qualitativeLabel>
top end

$$$$
>  <compound>
CC1=C(C(=O)O)N2C(=O)[C@@H](NC(=O)[C@H](N)c3ccccc3)[C@H]2SC1 [Cephalexin] + C[n+]1ccc(-c2cc[n+](C)cc2)cc1 [Paraquat]

>  <qualitativeLabel>
midrange

$$$$
>  <compound>
CC1=C(C(=O)O)N2C(=O)[C@@H](NC(=O)[C@H](N)c3ccccc3)[C@H]2SC1 [Cephalexin] + C[C@@H]1O[C@@H]1P(=O)(O)O [Fosfomycin]

>  <qualitativeLabel>
top end

$$$$
>  <compound>
Cc1onc(-c2ccccc2)c1C(=O)N[C@@H]1C(=O)N2[C@@H]1SC(C)(C)[C@@H]2C(=O)O [Oxacillin] + CN1C2=CC=CC=C2N=C3C1=CC=CC3=O [Pyocyanin]

>  <qualitativeLabel>
bottom end

$$$$
>  <compound>
C[n+]1ccc(-c2cc[n+](C)cc2)cc1 [Paraquat] + Cc1cc(NS(=O)(=O)c2ccc(N)cc2)no1 [Sulfamethoxazol]

>  <qualitativeLabel>
midrange

$$$$
>  <compound>
CC1=C(C(=O)O)N2C(=O)[C@@H](NC(=O)[C@H](N)c3ccccc3)[C@H]2SC1 [Cephalexin] + C[C@H]1COc2c(N3CCN(C)CC3)c(F)cc3c(=O)c(C(=O)O)cn1c23 [Levofloxacin]

>  <qualitativeLabel>
midrange

$$$$
>  <compound>
Cn1c2cccc(=O)c-2nc2ccccc21 [Pyocyanin] + CC[C@H]1OC(=O)[C@H](C)C(=O)[C@H](C)[C@@H](O[C@@H]2O[C@H](C)C[C@H](N(C)C)[C@H]2O)[C@](C)(OC)C[C@@H](C)C(=O)[C@H](C)[C@H]2N(CCCCn3cnc(-c4cccnc4)c3)C(=O)O[C@]12C [Telithromycin]

>  <qualitativeLabel>
bottom end

$$$$
>  <compound>
O=C(O)[C@H]1/C(=C/CO)O[C@@H]2CC(=O)N21 [Clavulanic] + CCC[C@@H]1C[C@@H](C(=O)N[C@@H]([C@H]2O[C@H](SC)[C@H](O)[C@@H](O)[C@H]2O)[C@H](C)Cl)N(C)C1 [Clindamycin]

>  <qualitativeLabel>
top end

$$$$
>  <compound>
C[n+]1ccc(-c2cc[n+](C)cc2)cc1 [Paraquat] + COc1ccc(C[C@H](N)C(=O)N[C@H]2[C@@H](O)[C@H](n3cnc4c(N(C)C)ncnc43)O[C@@H]2CO)cc1 [Puromycin]

>  <qualitativeLabel>
top end

$$$$
>  <compound>
O=C(O)[C@H]1/C(=C/CO)O[C@@H]2CC(=O)N21 [Clavulanic] + CN(N=O)C(=O)N[C@@H](C=O)[C@@H](O)[C@H](O)[C@H](O)CO [Streptozotocin]

>  <qualitativeLabel>
top end

$$$$
>  <compound>
C[n+]1ccc(-c2cc[n+](C)cc2)cc1 [Paraquat] + CN(N=O)C(=O)N[C@@H](C=O)[C@@H](O)[C@H](O)[C@H](O)CO [Streptozotocin]

>  <qualitativeLabel>
bottom end

$$$$
>  <compound>
CN(N=O)C(=O)N[C@@H](C=O)[C@@H](O)[C@H](O)[C@H](O)CO [Streptozotocin] + Cc1cc(NS(=O)(=O)c2ccc(N)cc2)no1 [Sulfamethoxazol]

>  <qualitativeLabel>
midrange

$$$$
>  <compound>
CC1=C(C(=O)O)N2C(=O)[C@@H](NC(=O)[C@H](N)c3ccccc3)[C@H]2SC1 [Cephalexin] + CC1(C)S[C@@H]2[C@H](NC(=O)Cc3ccccc3)C(=O)N2[C@H]1C(=O)O [PenicillinG]

>  <qualitativeLabel>
bottom end

$$$$
>  <compound>
Cc1onc(-c2ccccc2)c1C(=O)N[C@@H]1C(=O)N2[C@@H]1SC(C)(C)[C@@H]2C(=O)O [Oxacillin] + Oc1cc(Cl)ccc1Oc1ccc(Cl)cc1Cl [Triclosan]

>  <qualitativeLabel>
bottom end

$$$$
>  <compound>
CC[C@H]1OC(=O)[C@H](C)[C@@H](O[C@H]2C[C@@](C)(OC)[C@@H](O)[C@H](C)O2)[C@H](C)[C@@H](O[C@@H]2O[C@H](C)C[C@H](N(C)C)[C@H]2O)[C@](C)(O)C[C@@H](C)CN(C)[C@H](C)[C@@H](O)[C@]1(C)O [Azithromycin] + CCC[C@@H]1C[C@@H](C(=O)N[C@@H]([C@H]2O[C@H](SC)[C@H](O)[C@@H](O)[C@H]2O)[C@H](C)Cl)N(C)C1 [Clindamycin]

>  <qualitativeLabel>
bottom end

$$$$
>  <compound>
Clc1ccc(COC(Cn2ccnc2)c2ccc(Cl)cc2Cl)c(Cl)c1 (configuration not stated) [Miconazole] + CN[C@H](CC(C)C)C(=O)N[C@H]1C(=O)N[C@@H](CC(N)=O)C(=O)N[C@H]2C(=O)N[C@H]3C(=O)N[C@H](C(=O)N[C@H](C(=O)O)c4cc(O)cc(O)c4-c4cc3ccc4O)[C@H](O)c3ccc(c(Cl)c3)Oc3cc2cc(c3O[C@@H]2O[C@H](CO)[C@@H](O)[C@H](O)[C@H]2O[C@H]2C[C@](C)(N)[C@H](O)[C@H](C)O2)Oc2ccc(cc2Cl)[C@H]1O [Vancomycin]

>  <qualitativeLabel>
midrange

$$$$

###

test system: B. subtilis 168; assay: Bliss interaction score (quartile over a dose matrix) (fitness difference); higher = more antagonism (negative = synergy)
Threshold rule: Bliss interaction score greater than or equal to 0.03 is t; below that, f.

>  <compound>
CC1=C(C(=O)O)N2C(=O)[C@@H](NC(=O)[C@H](N)c3ccccc3)[C@H]2SC1 [Cephalexin] + CCN(CC)CCOC(=O)c1ccc(N)cc1 [Procaine]

>  <qualitativeLabel>
t

$$$$
>  <compound>
CC[C@H]1OC(=O)[C@H](C)[C@@H](O[C@H]2C[C@@](C)(OC)[C@@H](O)[C@H](C)O2)[C@H](C)[C@@H](O[C@@H]2O[C@H](C)C[C@H](N(C)C)[C@H]2O)[C@](C)(O)C[C@@H](C)CN(C)[C@H](C)[C@@H](O)[C@]1(C)O [Azithromycin] + CC[C@H]1OC(=O)[C@H](C)C(=O)[C@H](C)[C@@H](O[C@@H]2O[C@H](C)C[C@H](N(C)C)[C@H]2O)[C@](C)(OC)C[C@@H](C)C(=O)[C@H](C)[C@H]2N(CCCCn3cnc(-c4cccnc4)c3)C(=O)O[C@]12C [Telithromycin]

>  <qualitativeLabel>
t

$$$$
>  <compound>
Clc1ccc(COC(Cn2ccnc2)c2ccc(Cl)cc2Cl)c(Cl)c1 (configuration not stated) [Miconazole] + CN[C@H](CC(C)C)C(=O)N[C@H]1C(=O)N[C@@H](CC(N)=O)C(=O)N[C@H]2C(=O)N[C@H]3C(=O)N[C@H](C(=O)N[C@H](C(=O)O)c4cc(O)cc(O)c4-c4cc3ccc4O)[C@H](O[C@H]3C[C@](C)(N)[C@@H](O)[C@H](C)O3)c3ccc(c(Cl)c3)Oc3cc2cc(c3O[C@@H]2O[C@H](CO)[C@@H](O)[C@H](O)[C@H]2O[C@H]2C[C@](C)(NCc3ccc(-c4ccc(Cl)cc4)cc3)[C@@H](O)[C@H](C)O2)Oc2ccc(cc2Cl)[C@H]1O [Oritavancin]

>  <qualitativeLabel>
f

$$$$
>  <compound>
CC[C@H]1OC(=O)[C@H](C)[C@@H](O[C@H]2C[C@@](C)(OC)[C@@H](O)[C@H](C)O2)[C@H](C)[C@@H](O[C@@H]2O[C@H](C)C[C@H](N(C)C)[C@H]2O)[C@](C)(O)C[C@@H](C)CN(C)[C@H](C)[C@@H](O)[C@]1(C)O [Azithromycin] + CC(=O)O[C@H]1C[C@@]2(C)[C@@H](C[C@@H](O)[C@H]3[C@@]4(C)CC[C@@H](O)[C@@H](C)[C@@H]4CC[C@@]32C)/C1=C(\CCC=C(C)C)C(=O)O [Fusidic acid]

>  <qualitativeLabel>
f

$$$$
>  <compound>
CC[C@H]1OC(=O)[C@H](C)[C@@H](O[C@H]2C[C@@](C)(OC)[C@@H](O)[C@H](C)O2)[C@H](C)[C@@H](O[C@@H]2O[C@H](C)C[C@H](N(C)C)[C@H]2O)[C@](C)(O)C[C@@H](C)CN(C)[C@H](C)[C@@H](O)[C@]1(C)O [Azithromycin] + Cc1cc(NS(=O)(=O)c2ccc(N)cc2)no1 [Sulfamethoxazol]

>  <qualitativeLabel>
t

$$$$
>  <compound>
Cc1cc(NS(=O)(=O)c2ccc(N)cc2)no1 [Sulfamethoxazol] + CN[C@H](CC(C)C)C(=O)N[C@H]1C(=O)N[C@@H](CC(N)=O)C(=O)N[C@H]2C(=O)N[C@H]3C(=O)N[C@H](C(=O)N[C@H](C(=O)O)c4cc(O)cc(O)c4-c4cc3ccc4O)[C@H](O)c3ccc(c(Cl)c3)Oc3cc2cc(c3O[C@@H]2O[C@H](CO)[C@@H](O)[C@H](O)[C@H]2O[C@H]2C[C@](C)(N)[C@H](O)[C@H](C)O2)Oc2ccc(cc2Cl)[C@H]1O [Vancomycin]

>  <qualitativeLabel>
f

$$$$
>  <compound>
CC[C@H]1OC(=O)[C@H](C)[C@@H](O[C@H]2C[C@@](C)(OC)[C@@H](O)[C@H](C)O2)[C@H](C)[C@@H](O[C@@H]2O[C@H](C)C[C@H](N(C)C)[C@H]2O)[C@](C)(O)C[C@@H](C)CN(C)[C@H](C)[C@@H](O)[C@]1(C)O [Azithromycin] + Cc1onc(-c2ccccc2)c1C(=O)N[C@@H]1C(=O)N2[C@@H]1SC(C)(C)[C@@H]2C(=O)O [Oxacillin]

>  <qualitativeLabel>
t

$$$$
>  <compound>
CC1=C(C(=O)O)N2C(=O)[C@@H](NC(=O)[C@H](N)c3ccccc3)[C@H]2SC1 [Cephalexin] + CO[C@@]12[C@H](COC(N)=O)C3=C(C(=O)C(C)=C(N)C3=O)N1C[C@@H]1N[C@@H]12 [MitomycinC]

>  <qualitativeLabel>
f

$$$$
>  <compound>
CC1=C(C(=O)O)N2C(=O)[C@@H](NC(=O)[C@H](N)c3ccccc3)[C@H]2SC1 [Cephalexin] + CC[C@H]1OC(=O)[C@H](C)[C@@H](O[C@H]2C[C@@](C)(OC)[C@@H](O)[C@H](C)O2)[C@H](C)[C@@H](O[C@@H]2O[C@H](C)C[C@H](N(C)C)[C@H]2O)[C@](C)(O)C[C@@H](C)C(=O)[C@H](C)[C@@H](O)[C@]1(C)O [Erythromycin]

>  <qualitativeLabel>
f

$$$$
>  <compound>
CC1=C(C(=O)O)N2C(=O)[C@@H](NC(=O)[C@H](N)c3ccccc3)[C@H]2SC1 [Cephalexin] + C[n+]1ccc(-c2cc[n+](C)cc2)cc1 [Paraquat]

>  <qualitativeLabel>
t

$$$$
>  <compound>
Clc1ccc(COC(Cn2ccnc2)c2ccc(Cl)cc2Cl)c(Cl)c1 (configuration not stated) [Miconazole] + CC1=C\[C@@H](O)CC(=O)Cc2nc(co2)C(=O)N2CCC=C2C(=O)O[C@H](C(C)C)[C@H](C)/C=C/C(=O)NC\C=C\1 [Virginiamycin M1]

>  <qualitativeLabel>
t

$$$$
>  <compound>
CC1=C(C(=O)O)N2C(=O)[C@@H](NC(=O)[C@H](N)c3ccccc3)[C@H]2SC1 [Cephalexin] + CN(N=O)C(=O)N[C@@H](C=O)[C@@H](O)[C@H](O)[C@H](O)CO [Streptozotocin]

>  <qualitativeLabel>
t

$$$$
